Experiment: Effect of pH value on the stability of the solution (purity)
Type: physicochemical
Conditions: day 28, pH 4.6, 7% in 25% ethanol, 25° C.
Assay metric: Purity(%) from day 0-28
Expressed in %, but write only the number.

Could you tell me which Purity(%) from day 0-28 is on file for CC(C)Cc1ccc([C@@H](C)C(=O)OCCN2CCCC2)cc1.Cl (racemic) [C-9] ?
96.4

Now the compound CCCCN(CCCC)CCOC(=O)C(C)c1ccc(CC(C)C)cc1.Cl (racemic) [C-6]
97.1

Same lookup for CCN(CC)CCOC(=O)C(C)c1ccc(CC(C)C)cc1.Cl (racemic) [C-4] , please.
97.3

And for CC(C)Cc1ccc([C@@H](C)C(=O)OCCN(C)C)cc1.Cl (racemic) [C-5] ?
96.8

And what about the compound CC(C)Cc1ccc(C(C)C(=O)OCCN2CCCCC2)cc1.Cl (racemic) [C-10] ?
95.8

One more compound: CC(C)Cc1ccc([C@@H](C)C(=O)OC[C@@H]2CCCN2)cc1.Cl [C-7]
96.2

And for CC(C)Cc1ccc([C@@H](C)C(=O)OCCC2CCNCC2)cc1.Cl (racemic) [C-8] ?
96.3
